- Target: HIF-2α HIS TAG-PASB Domain (Homo sapiens, UniProt Q99814)
- Construct: 100 nM HIF-2α HIS TAG-PASB Domain
- Sequence (Q99814 240-350 limits assumed): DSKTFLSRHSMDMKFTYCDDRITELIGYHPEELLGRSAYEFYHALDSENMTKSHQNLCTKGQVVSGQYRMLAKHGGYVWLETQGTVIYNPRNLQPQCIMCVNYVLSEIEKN
- Test summary: HIF-2α Scintillation Proximity Assay (SPA)
- Format: binding
- Condition summary: read-out: Scintillation Proximity Assay IC50
Observable: IC50

Known results for compounds:
> print(dat)
                                   compound  observable  result.value
1  CS(=O)(=O)c1ccc(Nc2cncc(Cl)c2)c2c1C(O)C(F)(F)C2 (stereo not shown) [Compound 500]        IC50     > 1000 nM
2  CNCc1c(S(=O)(=O)C(F)(F)F)ccc(Oc2cc(F)cc(Cl)c2)c1Br [Compound 109]        IC50     > 1000 nM
3  N#CN=S1(=O)c2ccc(Oc3cc(F)cc(F)c3)c(C(F)F)c2C(O)C1(F)F (stereo not shown) [Compound 397]        IC50       < 50 nM
4  Cc1cncc(Oc2ccc3c(c2Br)[C@@H](O)C(F)(F)S3(=O)=O)c1 [Compound 428]        IC50     > 1000 nM
5  O=S(=O)(c1ccc(OCCCO)c2c1C(O)CC2)C(F)(F)F (stereo not shown) [Compound 611]        IC50     > 1000 nM

So, Cc1cc(C#N)cc(Oc2ccc3c(c2C(F)F)[C@@H](O)C(F)(F)S3(=O)=O)c1 [Compound 392] ? Its IC50 was < 50 nM

So, O=[N+]([O-])c1c(Oc2cc(F)cc(Cl)c2)ccc(C(F)(F)F)c1Cl [Compound 203] ? Its IC50 was 50 to 249 nM

* * *

- Target: HIF-2α HIS TAG-PASB Domain (Homo sapiens, UniProt Q99814)
- Construct: 100 nM HIF-2α HIS TAG-PASB Domain
- Test summary: HIF-2α Scintillation Proximity Assay (SPA)
- Format: binding
- Condition summary: read-out: Scintillation Proximity Assay IC50
Attribute: IC50

> print(dat)
                                   compound  observable    result.value
1  Cc1c(Oc2cc(F)cc(C#N)c2)ccc(S(=O)(=O)C(F)(F)F)c1Cl        IC50         < 50 nM
2  O=S(=O)(c1ccc(OC2CCNCC2)c2c1C(O)C(F)(F)C2)C(F)(F)F (stereo not shown)        IC50         < 50 nM
3  CS(=O)(=O)c1ccc(Oc2cc(F)cc(C#N)c2)c(C#N)c1Cl        IC50  250 to 1000 nM
4  O=S(=O)(c1ccc(OC2CCOCC2)c2c1C(O)CC2)C(F)(F)F (stereo not shown)        IC50       > 1000 nM
5  COc1cc(F)cc(Oc2ccc(S(=O)(=O)C(F)F)c3c2CC[C@H]3O)c1        IC50         < 50 nM
6  O=S(=O)(c1ccc(Cc2ccccc2)c2c1C(O)CC2)C(F)(F)F (stereo not shown)        IC50       > 1000 nM
7  CN=S(=O)(c1ccc(Oc2cc(F)cc(Cl)c2)c(Br)c1)C(F)F (stereo not shown)        IC50  250 to 1000 nM
8  N[C@@H]1c2c(ccc(Oc3cc(F)cc(F)c3)c2C(F)F)S(=O)(=O)C1(F)F        IC50         < 50 nM

So, "CS(=O)(=O)c1ccc(O[C@H]2C[C@@](F)(C#N)C2)c2c1[C@H](O)C(F)(F)[C@@H]2F" ? Its IC50 was < 50 nM

So, "CS(=O)(=O)N1CC(Oc2ccc(S(=O)(=O)C(F)(F)F)c3c2CC(F)(F)[C@H]3O)C1" ? Its IC50 was > 1000 nM

So, "O=C1c2c(S(=O)(=O)C(F)F)ccc(Oc3cncc(Cl)c3)c2CC1(F)F" ? Its IC50 was 250 to 1000 nM

So, N#Cc1cc(F)cc(Oc2ccc3c(c2C#N)C(N)C(F)(F)S3(=O)=O)c1 (stereo not shown) ? Its IC50 was > 1000 nM

So, CC1(C)C(O)c2c(ccc(Oc3cc(F)cc(Cl)c3)c2C#N)S1(=O)=O (stereo not shown) ? Its IC50 was > 1000 nM
